- MEASURED TARGET: CDK9 (Homo sapiens)
- Construct: endogenous in cells; host or cells: MDA-MB-231
- Sequence (P50750 whole entry): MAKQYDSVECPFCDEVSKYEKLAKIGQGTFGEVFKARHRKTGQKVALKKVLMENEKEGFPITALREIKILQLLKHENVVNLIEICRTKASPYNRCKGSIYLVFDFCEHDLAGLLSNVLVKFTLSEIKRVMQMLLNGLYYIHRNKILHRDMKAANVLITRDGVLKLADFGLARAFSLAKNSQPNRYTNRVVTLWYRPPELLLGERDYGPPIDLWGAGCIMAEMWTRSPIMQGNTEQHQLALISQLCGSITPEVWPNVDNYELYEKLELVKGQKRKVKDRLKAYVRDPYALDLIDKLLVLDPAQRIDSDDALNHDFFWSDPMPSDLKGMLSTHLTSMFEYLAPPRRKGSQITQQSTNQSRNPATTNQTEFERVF
- EXPERIMENT: CDK protein degradation activity (Western blotting), CDK9
- Type: cell-based
- MEASUREMENT CONTEXT: MDA-MB-231 cells, 0.1 μM, 16 hours, Western blot
QUANTITY MEASURED: Enzyme degradation CDK9 (% remaining) @ 0.1 μM (%)

Use these answered entries as a reference point.
Cc1cccc(C(=O)N[C@H]2C[C@@H](n3cnc4c(NCc5cccc(OCC6CCN(C(=O)CNc7ccc8c(c7)C(=O)N(C7CCC(=O)NC7=O)C8=O)CC6)c5)ncnc43)C2)n1 (stereo partly shown)	10
CC(=O)N[C@H]1C[C@@H](n2cnc3c(NCc4ccc(N5CCN(CC6CCN(C(=O)CNc7ccc8c(c7)C(=O)N([C@H]7CCC(=O)NC7=O)C8=O)CC6)CC5)cc4)ncnc32)C1	30
O=C1CC[C@H](N2C(=O)c3cccc(N4CCC(CCCN5CCN(c6ccc(Nc7ncnc8c7ncn8[C@H]7C[C@@H](NC(=O)Cc8ccccc8)C7)cc6)CC5)CC4)c3C2=O)C(=O)N1	60
Cc1cccc(C(=O)N[C@H]2C[C@@H](n3cnc4c(NCc5ccc(OCCCN6CCN(c7cccc8c7C(=O)N([C@H]7CCC(=O)NC7=O)C8=O)CC6)cc5)ncnc43)C2)n1	10
Cc1cccc(C(=O)N[C@H]2C[C@@H](n3cnc4c(NCc5ccc(OCCCN6CCN(C(=O)COc7cccc8c7C(=O)N([C@H]7CCC(=O)NC7=O)C8=O)CC6)cc5)ncnc43)C2)n1	100
O=C1CC[C@H](n2nnc3ccc(N4CCN(CC5CCN(c6ccc(Nc7ncnc8c7ncn8C7CC(NC(=O)Cc8ccccc8)C7)cc6)CC5)CC4)cc3c2=O)C(=O)N1 (stereo partly shown)	80

[A] O=C1CC[C@H](N2C(=O)c3ccc(N4CC(CN5CCC(CCN6CCN(c7ccc(Nc8ncnc9c8ncn9[C@H]8C[C@@H](NC(=O)Cc9ccccc9)C8)cc7)CC6)CC5)C4)cc3C2=O)C(=O)N1
[B] O=C1CC[C@H](N2C(=O)c3ccc(OCC(=O)N4CCC5(CC4)CC(N4CCN(c6ccc(Nc7ncnc8c7ncn8[C@H]7C[C@@H](NC(=O)Cc8ccccc8)C7)cc6)CC4)C5)cc3C2=O)C(=O)N1
Select one: A or B . Criterion: greater recorded Enzyme degradation CDK9 (% remaining) @ 0.1 μM. # reply format: chosen label A
(A: 30%, B: 10%)

[a] Cc1cccc(C(=O)N[C@H]2C[C@@H](n3cnc4c(NCCC5CCN(CC6CCN(C(=O)CCNc7ccc8c(c7)C(=O)N([C@H]7CCC(=O)NC7=O)C8=O)CC6)CC5)ncnc43)C2)n1 (racemic)
[b] O=C1CC[C@H](N2C(=O)c3cc(F)c(N4CCN(CC5CCN(c6ccc(Nc7ncnc8c7ncn8C7CC(NC(=O)c8c(Cl)cccc8Cl)C7)cc6)CC5)CC4)cc3C2=O)C(=O)N1 (stereo partly shown)
Could you kindly indicate whether a or b has the higher Enzyme degradation CDK9 (% remaining) @ 0.1 μM value? Output the label that corresponds to your choice. b
